Reference for the values: ChEMBL document CHEMBL1201862

Provide the recorded GI50 for the entries that follow.
Tested on: PC-3
PROTOCOL SUMMARY: NCI tumour cell line growth inhibition, 48 h
Active and inactive are the calls of the source. No stated cut-off is given here; in the data, active = GI50 up to about 1.1 µM and inactive = higher.

[ask] Lab note: need GI50 with PC-3 for entry CCOC(=O)/C(=C/c1cn(C(C)=O)c2ccccc12)P(=O)(OC)OC , please look it up.
[reply] 25.9 µM (inactive)

[ask] Next record, please: NNC(=O)c1nn[nH]c1SSc1[nH]nnc1C(=O)NN
[reply] > 100 µM (inactive)

[ask] Next record, please: COC(=O)Nc1nc2cc(NS(=O)(=O)c3ccc(Cl)cc3)ccc2[nH]1
[reply] 8.55 µM (inactive)

[ask] Next record, please: c1ccc2c(c1)SC1=C(SC(=C3SC4=C(S3)Sc3ccccc3S4)S1)S2
[reply] > 100 µM (inactive)

###

System: SF-268
PROTOCOL SUMMARY: NCI tumour cell line growth inhibition, 48 h
Active and inactive are the calls of the source. Rule as the data show it: active = GI50 up to about 1.1 µM and inactive = higher.
Provide the recorded GI50 for the entries that follow.

[ask] Name the reported GI50 value associated with the compound CCCOC(=O)c1cc(C(=CCC[C@H]2CC[C@@]3(C)[C@@H](CC[C@@H]4[C@@H]3CC[C@]3(C)[C@@H](C(C)CCCC(C)C)CC[C@@H]43)C2)c2cc(Cl)c(O)c(C(=O)OCCC)c2)cc(Cl)c1O (stereo not given in full)
[reply] > 50 µM (inactive)

[ask] Next record, please: NC(=S)N/N=C\CC(O)(C(F)(F)F)C(F)(F)F
[reply] > 10 µM (inactive)

[ask] Next record, please: CC/C=C/c1cc2c(cc1O)CCC1C2CC[C@@]2(C)C1CC[C@@H]2O (stereo not given in full)
[reply] 10.2 µM (inactive)

[ask] Next record, please: C=C(c1ccccc1)C1(O)CCCCC1N (stereo not given)
[reply] > 100 µM (inactive)

[ask] Next record, please: Cc1ccc(/C=N/C23CC4CC(CC(C4)C2)C3)cc1
[reply] > 100 µM (inactive)

[ask] Next record, please: O=C(O)/C(=C\c1ccncc1)c1cccc2ccccc12
[reply] > 100 µM (inactive)

[ask] Next record, please: O=C(O)c1cnc2[nH]ccn2c1=O
[reply] > 100 µM (inactive)

[ask] Next record, please: Nc1ccnc2c1ncn2[C@H]1C[C@H](O)[C@@H](CO)O1
[reply] > 100 µM (inactive)

[ask] Next record, please: CCCCC1=CC1(C#N)[N+](=O)[O-] (stereo not given)
[reply] > 100 µM (inactive)

[ask] Next record, please: CC(=O)Oc1ccc2c(=O)c(C(C)=O)coc2c1
[reply] > 100 µM (inactive)

[ask] Next record, please: COc1cc(/C=C/c2ccc(O)c(OC)c2)cc(OC)c1
[reply] 34.4 µM (inactive)

[ask] Next record, please: CCOC(=O)NC(OC)(C(F)(F)F)C(F)(F)F
[reply] > 100 µM (inactive)

[ask] Next record, please: Cc1cc2oc3c(ccc(=O)n3C)c(=O)c2c(C)c1Cl
[reply] 55.5 µM (inactive)

[ask] Next record, please: O=C(NC1(C(=O)NNc2nnc(-c3ccccc3)c(-c3ccccc3)n2)C(c2ccccc2)C(c2ccccc2)=NN1c1ccccc1)c1ccccc1 (stereo not given)
[reply] > 100 µM (inactive)

[ask] Next record, please: C/C(=C\c1ccc2c(c1)OCO2)[N+](=O)[O-]
[reply] 3.44 µM (inactive)

[ask] Next record, please: COCn1c(C)c(C)c2c(=O)oc(=O)[nH]c21
[reply] > 100 µM (inactive)

[ask] Next record, please: CC1(C=O)CC(CCc2ccccc2)NC1Cc1ccc(O)cc1 (stereo not given)
[reply] 16.6 µM (inactive)

[ask] Next record, please: O=C(NNC(=O)c1nsc2ccccc12)c1ccc(Cl)cc1
[reply] 17.7 µM (inactive)

[ask] Next record, please: COc1cc(OC)c2nc(C)c3c(c2c1)SCC3
[reply] 19.4 µM (inactive)

[ask] Next record, please: COc1cc(S(=O)(=O)Nc2nc(-c3ccc(N4C(=O)CSC4c4cccs4)cc3)cs2)ccc1Cl (stereo not given)
[reply] 37.6 µM (inactive)
